Assay: Cytotoxicity against NHDF infected with human cytomegalovirus after 7 days by alamar blue assay
Format: cell-based
Conditions: NHDF cells infected with human cytomegalovirus
REPORTED PROPERTY: CC50 at 168 h

>>> print(df.to_string())
                  sample_smiles  reported_property  observed_result
0  Nc1nc(O)c2ncn(COC(CO)CO)c2n1      CC50 at 168 h         > 333 µM
